Data provenance is patent US20260209212A1.

# TARGET_SYSTEM: GLP-1 Receptor (Homo sapiens, UniProt P43220)
# Sequence (P43220 24-463): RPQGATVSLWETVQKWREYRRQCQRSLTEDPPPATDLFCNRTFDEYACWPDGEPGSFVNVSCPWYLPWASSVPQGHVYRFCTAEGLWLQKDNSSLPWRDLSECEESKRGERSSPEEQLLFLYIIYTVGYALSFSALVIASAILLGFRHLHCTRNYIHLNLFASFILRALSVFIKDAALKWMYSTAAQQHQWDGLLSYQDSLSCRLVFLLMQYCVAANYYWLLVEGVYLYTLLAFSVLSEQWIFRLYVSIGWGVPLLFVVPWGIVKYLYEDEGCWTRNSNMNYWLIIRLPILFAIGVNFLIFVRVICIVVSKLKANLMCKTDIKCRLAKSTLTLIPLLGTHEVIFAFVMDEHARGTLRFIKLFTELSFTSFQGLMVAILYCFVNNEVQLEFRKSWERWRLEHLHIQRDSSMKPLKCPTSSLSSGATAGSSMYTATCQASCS
# TEST: GLP-1R agonist cAMP stimulation assay
# STUDY_CONDITIONS: HEK293/GLP1R/CRE-LUC cells stably expressing the GLP-1 Receptor; cAMP dynamic 2 Kit (Cisbio); 30 min at 37° C.

>  <MOLECULE>
N#Cc1ccc([C@@H]2COc3c(cccc3C34CCN(Cc5nc6ccc(C(=O)O)cc6n5C[C@@H]5CCO5)CC3C4)O2)cc1 (stereo partly drawn)

>  <UNITS_TEXT>
nM

>  <EC50>
100

$$$$
>  <MOLECULE>
N#Cc1ccc([C@@H]2COc3c(cccc3C3CCN(Cc4nc5c(F)cc(C(=O)O)c(F)c5n4C[C@@H]4CCO4)CC3)O2)cc1

>  <UNITS_TEXT>
nM

>  <EC50>
0.025

$$$$
>  <MOLECULE>
O=C(O)c1ccc2nc(CN3CCC(c4ccnc5c4OC[C@@H](c4ccc(Cl)cc4)O5)CC3)n(C[C@@H]3CCO3)c2c1

>  <UNITS_TEXT>
nM

>  <EC50>
0.16

$$$$
>  <MOLECULE>
O=C(O)c1ccc2nc(CN3CC=C(c4cccc5c4OC[C@@H](c4ccc(Cl)cc4)O5)CC3)n(C[C@@H]3CCO3)c2c1

>  <UNITS_TEXT>
nM

>  <EC50>
0.77

$$$$
>  <MOLECULE>
CC1=C(c2cccc3c2OC[C@@H](c2ccc(Cl)cc2)O3)CCN(Cc2nc3ccc(C(=O)O)cc3n2C[C@@H]2CCO2)C1

>  <UNITS_TEXT>
nM

>  <EC50>
1.6

$$$$
>  <MOLECULE>
O=C(O)c1cc(F)c2nc(CN3CCC(c4cccc5c4OC[C@@H](c4ccc(C(F)(F)F)cc4)O5)CC3)n(C[C@@H]3CCO3)c2c1

>  <UNITS_TEXT>
nM

>  <EC50>
0.029

$$$$

###

# TARGET_SYSTEM: UniProt:P43220
# TEST: GLP-1R agonist cAMP stimulation assay
# STUDY_CONDITIONS: HEK293/GLP1R/CRE-LUC cells stably expressing the GLP-1 Receptor; cAMP dynamic 2 Kit (Cisbio); 30 min at 37° C.
pEC50: −log10 of the molar value.
// label = class 1 if pEC50 is not less than 10, otherwise class 0

>  <COMPOUND>
COc1cc(C(=O)O)cc2c1nc(CN1CCC(c3cccc4c3OC[C@@H](c3ccc(C#N)cc3)O4)CC1)n2C[C@@H]1CCO1

>  <CAT>
class 1

$$$$
>  <COMPOUND>
O=C(O)c1ccc2nc(CN3CC=C(c4cccc5c4OC[C@@H](c4ccc6cnn(CC(F)F)c6c4)O5)CC3)n(C[C@@H]3CCO3)c2c1

>  <CAT>
class 0

$$$$
>  <COMPOUND>
CO[C@@H]1COC[C@@H]1n1c(CN2CCC(c3cccc4c3OC[C@@H](c3ccc(C#N)cc3)O4)CC2)nc2ccc(C(=O)O)cc21

>  <CAT>
class 1

$$$$
>  <COMPOUND>
O=C(O)c1cc(F)c2nc(CN3CCC(c4cccc5c4OC[C@@H](c4ccc(Cl)c6ccoc46)O5)CC3)n(C[C@@H]3CCO3)c2c1

>  <CAT>
class 1

$$$$
>  <COMPOUND>
O=C(O)c1ccc2nc(CN3CCC(c4cccc5c4OC[C@@H](c4ccc(Cl)c6ccoc46)O5)CC3)n(C[C@@H]3CCO3)c2c1

>  <CAT>
class 1

$$$$
>  <COMPOUND>
COc1cc(C(=O)O)cc2c1nc(CN1CCC(c3cccc4c3OC[C@@H](c3ccc(Cl)cc3)O4)CC1)n2C[C@@H]1CCO1

>  <CAT>
class 1

$$$$
>  <COMPOUND>
O=C(O)c1cc(F)c2nc(CN3CCC(c4cccc5c4OC[C@@H](c4ccc(Cl)cc4)O5)CC3)n(C[C@@H]3CCO3)c2c1F

>  <CAT>
class 1

$$$$
>  <COMPOUND>
O=C(O)c1ccc2nc(CN3CCC(c4c(F)ccc5c4OC[C@@H](c4ccc(Cl)cc4)O5)CC3)n(C[C@@H]3CCO3)c2c1

>  <CAT>
class 0

$$$$
>  <COMPOUND>
O=C(O)c1ccc2nc(CN3CCC4(c5cccc6c5OC[C@@H](c5ccc(Cl)cc5)O6)CC4C3)n(C[C@@H]3CCO3)c2c1 (stereo partly shown)

>  <CAT>
class 0

$$$$
>  <COMPOUND>
CO[C@H]1COC[C@H]1n1c(CN2CCC(c3cccc4c3OC[C@@H](c3ccc(Cl)cc3)O4)CC2)nc2c(F)cc(C(=O)O)cc21

>  <CAT>
class 0

$$$$

###

# TARGET_SYSTEM: GLP-1 Receptor (Homo sapiens, UniProt P43220)
# TEST: GLP-1R agonist cAMP stimulation assay
# STUDY_CONDITIONS: HEK293/GLP1R/CRE-LUC cells stably expressing the GLP-1 Receptor; cAMP dynamic 2 Kit (Cisbio); 30 min at 37° C.

>  <COMPOUND>
COc1cc(C(=O)O)cc2c1nc(CN1CCC(c3cccc4c3OC[C@@H](c3ccc(Cl)c5ccoc35)O4)CC1)n2C[C@@H]1CCO1

>  <TARGET_SYSTEM>
GLP-1 Receptor (Homo sapiens, UniProt P43220)

>  <EC50, nM>
0.005

$$$$
>  <COMPOUND>
N#Cc1ccc([C@@H]2COc3c(cccc3C3CCN(Cc4nc5ccc(C(=O)O)cc5n4CC4CCOC4)CC3)O2)cc1 (stereo partly drawn)

>  <TARGET_SYSTEM>
GLP-1 Receptor (Homo sapiens, UniProt P43220)

>  <EC50, nM>
1.6

$$$$
>  <COMPOUND>
COc1cc(C(=O)O)cc2c1nc(CN1CCC(c3cccc4c3OC[C@@H](c3ccc(C#N)cc3)O4)CC1)n2[C@@H]1COC[C@@H]1OC

>  <TARGET_SYSTEM>
GLP-1 Receptor (Homo sapiens, UniProt P43220)

>  <EC50, nM>
0.68

$$$$

###

# TARGET_SYSTEM: UniProt:P43220
# TEST: GLP-1R agonist cAMP stimulation assay
# STUDY_CONDITIONS: HEK293/GLP1R/CRE-LUC cells stably expressing the GLP-1 Receptor; cAMP dynamic 2 Kit (Cisbio); 30 min at 37° C.
pEC50: −log10 of the molar value.

>  <MOLECULE>
N#CCC1(Cn2c(CN3CCC(c4cccc5c4OC[C@@H](c4ccc(C#N)cc4)O5)CC3)nc3c(F)cc(C(=O)O)cc32)CC1 [Compound 112]

>  <pEC50>
10.59

$$$$
>  <MOLECULE>
C[C@H]1CC(c2cccc3c2OC[C@@H](c2ccc(C#N)cc2)O3)CCN1Cc1nc2c(F)cc(C(=O)O)cc2n1C[C@@H]1CCO1 (some centres unmarked) [Compound 109]

>  <pEC50>
10.39

$$$$
>  <MOLECULE>
O=C(O)c1cc(F)c2nc(CN3CCC(c4cccc5c4OC[C@@H](c4ccc(Cl)cc4)O5)CC3)n(C[C@@H]3CCO3)c2c1 [Compound 111]

>  <pEC50>
10.77

$$$$
>  <MOLECULE>
N#Cc1ccc([C@@H]2COc3c(cccc3C3CCN(Cc4nc5ccc(C(=O)O)c(F)c5n4C[C@@H]4CCO4)CC3)O2)cc1 [Compound 103]

>  <pEC50>
10.24

$$$$
>  <MOLECULE>
CCn1cncc1Cn1c(CN2CCC(c3cccc4c3OC[C@@H](c3ccc(C#N)cc3)O4)CC2)nc2ccc(C(=O)O)cc21 [Compound 105]

>  <pEC50>
10.92

$$$$
>  <MOLECULE>
O=C(O)c1ccc2nc(CN3CCC(c4nccc5c4OC[C@@H](c4ccc(Cl)cc4)O5)CC3)n(C[C@@H]3CCO3)c2c1 [Compound 128]

>  <pEC50>
9.10

$$$$
>  <MOLECULE>
CC(=O)N1C[C@H](F)C[C@@H]1Cn1c(CN2CCC(c3cccc4c3OC[C@@H](c3ccc(C#N)cc3)O4)CC2)nc2ccc(C(=O)O)cc21 [Compound 113]

>  <pEC50>
8.40

$$$$
>  <MOLECULE>
N#Cc1ccc([C@@H]2COc3c(cccc3C3CCN(Cc4nc5c(F)cc(C(=O)O)cc5n4C[C@@H]4CCO4)CC3)O2)cc1 [Compound 104]

>  <pEC50>
10.57

$$$$

###

Known EC50 of a selection of molecules
# TARGET_SYSTEM: GLP-1 Receptor (Homo sapiens, UniProt P43220)
# TEST: GLP-1R agonist cAMP stimulation assay
# STUDY_CONDITIONS: HEK293/GLP1R/CRE-LUC cells stably expressing the GLP-1 Receptor; cAMP dynamic 2 Kit (Cisbio); 30 min at 37° C.

>  <CHEM_SMILES>
N#Cc1ccc([C@@H]2COc3c(cccc3C3CCN(Cc4nc5ccc(C(=O)O)cc5n4CC4(C#N)CC4)CC3)O2)cc1

>  <EC50, nM>
0.18

$$$$
>  <CHEM_SMILES>
O=C(O)c1ccc2nc(CN3CCC(c4cccc5c4OC[C@@H](c4ccc6cnn(CC(F)F)c6c4)O5)CC3)n(C[C@@H]3CCO3)c2c1

>  <EC50, nM>
0.065

$$$$
>  <CHEM_SMILES>
O=C(O)c1cc(F)c2nc(CN3CCC(c4cccc5c4OC[C@@H](c4ccc(C(F)F)cc4)O5)CC3)n(C[C@@H]3CCO3)c2c1

>  <EC50, nM>
0.055

$$$$
